- assayedSystem: T1, biotinylated human PD-L1 (human, UniProt Q9NZQ7 19-239, limits assumed, biotinylated (sites not given))
- T1 construct: Bought from R&D Systems; also called biotinylated-PD-L1; human PD-L1 biotin
- T1 sequence (Q9NZQ7 19-239 limits assumed): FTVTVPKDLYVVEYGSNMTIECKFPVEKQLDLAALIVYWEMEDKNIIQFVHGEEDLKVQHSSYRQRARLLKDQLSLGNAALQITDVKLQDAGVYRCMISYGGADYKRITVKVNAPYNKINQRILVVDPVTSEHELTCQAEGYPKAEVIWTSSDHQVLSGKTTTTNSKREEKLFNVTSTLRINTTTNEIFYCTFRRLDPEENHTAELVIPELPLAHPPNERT
- protocolNotes: competition ELISA, Fab with biotinylated PD-L1 on coated PD-1-Fc, pH 7.4
pIC50: −log10 of the molar value.
Examples of binders with documented pIC50 follow.

# binder, pIC50
measured = [
    ("Fab 8G08 (Fab, V domains shown, Purified Fab prepared from IgG with the Pierce kit; also called 8G08 Fab) VH: QVQLVQSGGGVVQPGRSLRLSCAASGFTFSSYGMYWVRQAPGKGLEWVAVISYDGSNKYYADSVKGRFTISRDNSKNTLNLQMNSLRAEDTAVYYCAKGALTHWGVVIGDGMDVWGQGTTVTVSS VL: NFMLTQPHSVSESPGKTVTISCISNDVPASGHYHRWYQQRPGSSPTTVIYEDDQRPSGVPDRFSGSIDSSSNSASLTISGLKTEDEADYYCQSFDSTNPWVFGGGTKLTVL", "< 7.00"),
    ("Fab 8D06 (Fab, V domains shown, Purified Fab prepared from IgG with the Pierce kit; also called 8D06 Fab) VH: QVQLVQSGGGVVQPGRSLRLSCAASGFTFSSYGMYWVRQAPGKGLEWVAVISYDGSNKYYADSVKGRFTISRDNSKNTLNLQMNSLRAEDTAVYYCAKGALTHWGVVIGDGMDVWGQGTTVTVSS VL: NFMLTQPHSVSESPGKTVTISCVLSPRTHAGHYYRWYQQRPGSSPTTVIYEDDQRPSGVPDRFSGSIDSSSNSASLTISGLKTEDEADYYCQSFDSTNPWVFGGGTKLTVL", "< 7.00"),
    ("Fab 8D04 (Fab, V domains shown, Purified Fab prepared from IgG with the Pierce kit; also called 8D04 Fab) VH: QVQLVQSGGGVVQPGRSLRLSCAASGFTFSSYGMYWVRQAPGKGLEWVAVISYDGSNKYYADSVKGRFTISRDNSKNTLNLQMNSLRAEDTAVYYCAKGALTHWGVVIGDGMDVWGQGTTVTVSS VL: NFMLTQPHSVSESPGKTVTISCRGTGSSFHHKYVRWYQQRPGSSPTTVIYEDDQRPSGVPDRFSGSIDSSSNSASLTISGLKTEDEADYYCQSFDSTNPWVFGGGTKLTVL", "< 7.00"),
    ("Fab 8A04 (Fab, V domains shown, Purified Fab prepared from IgG with the Pierce kit; also called 8A04 Fab) VH: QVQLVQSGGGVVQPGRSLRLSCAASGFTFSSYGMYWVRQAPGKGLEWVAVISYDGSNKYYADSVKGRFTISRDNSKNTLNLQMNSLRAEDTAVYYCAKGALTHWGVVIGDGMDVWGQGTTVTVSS VL: NFMLTQPHSVSESPGKTVTISCMRTGTGNKGHYTRWYQQRPGSSPTTVIYEDDQRPSGVPDRFSGSIDSSSNSASLTISGLKTEDEADYYCQSFDSTNPWVFGGGTKLTVL", 7.09),
    ("Fab 8B06 (Fab, V domains shown, Purified Fab prepared from IgG with the Pierce kit; also called 8B06 Fab) VH: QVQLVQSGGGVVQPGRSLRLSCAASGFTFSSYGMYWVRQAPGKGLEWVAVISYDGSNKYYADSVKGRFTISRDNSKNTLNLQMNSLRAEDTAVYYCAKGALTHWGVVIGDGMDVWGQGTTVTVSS VL: NFMLTQPHSVSESPGKTVTISCRETELSRRLHYVRWYQQRPGSSPTTVIYEDDQRPSGVPDRFSGSIDSSSNSASLTISGLKTEDEADYYCQSFDSTNPWVFGGGTKLTVL", "< 7.00"),
]
